The reported numbers originate from patent US20220146526A1.

testSummary: GC/MS of serum sample: time from blood collection to centrifugation (Table G)
Format: physicochemical, human
conditions: detection intensity relative to 1 at 15 minutes, blood collection to centrifugation, after 8 hours
Kind request: treat 0.7 as inclusive, so Rate of increase or decrease at 0.7 or higher is Criterion met, anything lower is Criterion not met.

Incoming: Determine whether measured Rate of increase or decrease meets or exceeds 0.7 for O=C(O)[C@@H](O)[C@H](O)CO [Threonic acid]
Outgoing: Criterion not met

Incoming: Determine whether measured Rate of increase or decrease meets or exceeds 0.7 for OC[C@@H](O)[C@H](O)[C@@H](O)CO [Xylitol]
Outgoing: Criterion not met

Incoming: Determine whether measured Rate of increase or decrease meets or exceeds 0.7 for OC[C@@H](O)[C@@H](O)CO [Meso-erythritol]
Outgoing: Criterion not met

Incoming: Determine whether measured Rate of increase or decrease meets or exceeds 0.7 for O[C@H]1[C@H](O)[C@@H](O)[C@H](O)[C@@H](O)[C@H]1O [Inositol]
Outgoing: Criterion met

Incoming: Determine whether measured Rate of increase or decrease meets or exceeds 0.7 for NCCCCN [Putrescine]
Outgoing: Criterion met

Incoming: Determine whether measured Rate of increase or decrease meets or exceeds 0.7 for CC(C)C(=O)C(=O)O [2-Ketoisovaleric acid]
Outgoing: Criterion not met

----------
testSummary: GC/MS of serum sample: time from centrifugation to isolation (Table H)
Format: physicochemical, human
conditions: detection intensity relative to 1 at 30 minutes, after 1 hour
Group membership follows Rate of increase or decrease per the scheme zone 1 (below 0.7), zone 2 (0.7 to below 2), zone 3 (2 or more)

Incoming: Please classify: NCCCCN
Outgoing: zone 2

Incoming: Please classify: O=C1CCNC(=O)N1 [Dihydrouracil]
Outgoing: zone 1

Incoming: Please classify: CC(=O)C(=O)O
Outgoing: zone 1

Incoming: Please classify: OC[C@@H](O)[C@@H](O)[C@@H](O)CO
Outgoing: zone 3

Incoming: Please classify: O=c1[nH]cnc2nc[nH]c12
Outgoing: zone 2

Incoming: Please classify: O=C(O)c1ccc(CO)o1 [5-Hydroxymethyl-2-furancarboxylic acid]
Outgoing: zone 2

Incoming: Please classify: O=C[C@H](O)[C@H](O)[C@H](O)CO
Outgoing: zone 2

Incoming: Please classify: O=C(O)/C=C\C(=O)O
Outgoing: zone 2

Incoming: Please classify: O=C(O)CCCCC(=O)O
Outgoing: zone 3

Incoming: Please classify: NCCc1ccc(O)c(O)c1
Outgoing: zone 1

Incoming: Please classify: CC(C)(CO)[C@@H](O)C(=O)NCCC(=O)O
Outgoing: zone 1

Incoming: Please classify: O=C(O)CCCCCCCC(=O)O
Outgoing: zone 2

----------
Answer each item with its documented Rate of increase or decrease (first value, increase).
testSummary: LC/MS of blood plasma sample: time from blood collection to centrifugation (Table D)
Assay type: physicochemical, human
conditions: different from individual to individual, individuals with increase, relative to 1 at 15 minutes, collection to centrifugation, after 12 hours
Form rule: numeric answer, no unit written next to it.

Incoming: Entry under review: C[C@H](N)C(=O)O . Reported Rate of increase or decrease (first value, increase)?
Outgoing: 1.41

Incoming: Entry under review: CC[C@H](C)[C@H](N)C(=O)O . Reported Rate of increase or decrease (first value, increase)?
Outgoing: 1.31

Incoming: Entry under review: CN(C)C(N)=NCCC[C@H](N)C(=O)O . Reported Rate of increase or decrease (first value, increase)?
Outgoing: 1.78

Incoming: Entry under review: CN(CC(=O)O)C(=N)N . Reported Rate of increase or decrease (first value, increase)?
Outgoing: 1.67

Incoming: Entry under review: C[S+]([O-])CC[C@H](N)C(=O)O (stereo partly shown) [Methionine sulfoxide] . Reported Rate of increase or decrease (first value, increase)?
Outgoing: 1.36

Incoming: Entry under review: CN(C)CC(=O)O . Reported Rate of increase or decrease (first value, increase)?
Outgoing: 1.57

Incoming: Entry under review: O=C(O)[C@@H]1CC(O)CN1 (stereo partly shown) [4-Hydroxyproline] . Reported Rate of increase or decrease (first value, increase)?
Outgoing: 1.33

Incoming: Entry under review: CN=C(NC)NCCC[C@H](N)C(=O)O . Reported Rate of increase or decrease (first value, increase)?
Outgoing: 1.78

Incoming: Entry under review: CCC(N)C(=O)O (stereo not shown) . Reported Rate of increase or decrease (first value, increase)?
Outgoing: 1.53

Incoming: Entry under review: C[N+](C)(C)CC(O)CC(=O)[O-] (stereo not shown) . Reported Rate of increase or decrease (first value, increase)?
Outgoing: 1.57

Incoming: Entry under review: Nc1ccccc1C(=O)CC(N)C(=O)O (stereo not shown) . Reported Rate of increase or decrease (first value, increase)?
Outgoing: 1.85

Incoming: Entry under review: N[C@@H](Cc1c[nH]c2ccccc12)C(=O)O . Reported Rate of increase or decrease (first value, increase)?
Outgoing: 1.62

Incoming: Entry under review: O=c1ccn([C@@H]2O[C@H](CO)[C@@H](O)[C@H]2O)c(=O)[nH]1 . Reported Rate of increase or decrease (first value, increase)?
Outgoing: 1.67
